All figures here come from patent US10975080B2.

Target: SHP2 (Homo sapiens (Human), UniProt Q06124)
Sequence (Q06124 whole entry): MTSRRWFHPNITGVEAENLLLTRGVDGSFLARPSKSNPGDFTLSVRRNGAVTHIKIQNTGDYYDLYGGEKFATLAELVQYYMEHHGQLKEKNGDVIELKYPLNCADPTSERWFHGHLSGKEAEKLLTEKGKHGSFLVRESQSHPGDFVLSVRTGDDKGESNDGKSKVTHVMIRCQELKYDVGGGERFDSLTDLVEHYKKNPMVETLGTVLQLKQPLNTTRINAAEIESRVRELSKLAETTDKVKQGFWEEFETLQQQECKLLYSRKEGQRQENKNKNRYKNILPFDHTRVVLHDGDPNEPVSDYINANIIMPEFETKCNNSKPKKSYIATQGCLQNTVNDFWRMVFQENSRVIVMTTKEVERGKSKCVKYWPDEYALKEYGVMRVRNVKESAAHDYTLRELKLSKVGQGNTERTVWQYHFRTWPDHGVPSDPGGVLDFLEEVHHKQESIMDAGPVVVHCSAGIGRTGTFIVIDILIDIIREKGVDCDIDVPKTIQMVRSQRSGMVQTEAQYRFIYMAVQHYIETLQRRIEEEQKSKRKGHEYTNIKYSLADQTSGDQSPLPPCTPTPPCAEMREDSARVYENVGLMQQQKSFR
Experiment: SHP2 Allosteric Inhibition Assay
Format: biochemical
Conditions: 0.5 nM SHP2 with 0.5 μM peptide IRS1_pY1172(dPEG8)pY1222; surrogate substrate DiFMUP; 25° C.; read-out: SHP2 IC50
quantity: IC50
Include the unit after the number when you answer.

Below: 2 compounds and their reported IC50.
# chemical.structure, study.target, IC50
measured = [
    ("Cn1c(N2CCC3(CC[C@@H]3N)CC2)nc2[nH]nc(-c3cccc(Cl)c3Cl)c2c1=O", "SHP2 (Homo sapiens (Human), UniProt Q06124)", "44 nM"),
    ("CNc1cc(-c2n[nH]c3nc(N4CCC5(CC4)CO[C@@H](C)[C@H]5N)n(C)c(=O)c23)ccn1", "SHP2 (Homo sapiens (Human), UniProt Q06124)", "50 nM"),
]

Consider the compound shown here: C[C@@H]1OCC2(CCN(c3nc4[nH]nc(-c5ccccc5)c4c(=O)n3C)CC2)[C@@H]1N What is its recorded IC50?
33 nM

Consider the compound shown here: C[C@@H]1OCC2(CCN(c3nc4[nH]nc(-c5cc(Cl)ncc5Cl)c4c(=O)n3C)CC2)[C@@H]1N What is its recorded IC50?
30 nM
